# tested_system: Albumin (Bos taurus) (UniProt P02769)
# Sequence (P02769 whole entry, looked up): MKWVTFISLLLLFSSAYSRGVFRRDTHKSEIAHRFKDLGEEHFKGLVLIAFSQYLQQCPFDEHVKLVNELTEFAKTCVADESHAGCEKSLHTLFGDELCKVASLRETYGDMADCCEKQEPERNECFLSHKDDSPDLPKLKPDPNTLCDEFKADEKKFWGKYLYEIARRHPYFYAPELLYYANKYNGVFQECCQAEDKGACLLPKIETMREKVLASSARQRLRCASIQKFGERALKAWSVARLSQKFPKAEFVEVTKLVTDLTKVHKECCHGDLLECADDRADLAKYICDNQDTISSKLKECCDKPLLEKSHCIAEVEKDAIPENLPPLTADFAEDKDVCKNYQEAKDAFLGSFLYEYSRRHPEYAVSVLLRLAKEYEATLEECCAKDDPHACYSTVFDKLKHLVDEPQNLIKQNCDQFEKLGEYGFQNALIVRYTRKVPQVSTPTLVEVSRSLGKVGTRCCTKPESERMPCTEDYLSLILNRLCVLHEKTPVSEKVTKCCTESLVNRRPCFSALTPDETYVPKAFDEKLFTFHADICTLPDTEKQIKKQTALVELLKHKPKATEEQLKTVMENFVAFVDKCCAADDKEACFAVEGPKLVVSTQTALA
# assay_method_text: bovine serum albumin binders on microarray, profiling panel, artefact control for SMM control protein annotation, biochemical, small-molecule microarray, Alexa647 label, 635/667 nm fluorescence (AID 1118);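 also: score merges 667 nm emission intensity and signal-to-noise per printed compound spot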
# setup_conditions: BSA-A647 binding, fluorescence 635 nm, higher = more signal
measure: composite z-score

[[record]]
molecule = "O=C1c2ccccc2[C@](Cc2ccccc2I)(C(=O)NCC(F)(F)F)[C@H](c2ccc(CO)cc2)N1Cc1ccccc1C(F)(F)F"
tested_system = "Albumin (Bos taurus) (UniProt P02769)"
readout_value = 0.89

[[record]]
molecule = "Cc1ccc(S[C@]2(C(=O)NC(C)C)CC(=O)N(C3Cc4ccccc4C3)[C@@H]2c2ccc(CO)cc2)cc1"
tested_system = "Albumin (Bos taurus) (UniProt P02769)"
readout_value = 0.451

[[record]]
molecule = "C=CCC(OC(C)=O)[C@@H]1[C@@H](N(Cc2ccc(-c3cccc(C(F)(F)F)c3)o2)C(=O)Cc2ccc(F)cc2)c2cc(OCCCO)ccc2N1C(=O)c1ccc(-c2ccccc2)cc1 (some centres not stated)"
tested_system = "Albumin (Bos taurus) (UniProt P02769)"
readout_value = -0.701

[[record]]
molecule = "COCCOC(=O)N1C(=O)[C@@]2(c3ccccc31)[C@H](C(=O)N1CCc3cc(OC)c(OC)cc3C1)[C@H]1C(=O)O[C@H](c3ccccc3)[C@H](c3ccccc3)N1[C@@H]2c1ccccc1OCCO"
tested_system = "Albumin (Bos taurus) (UniProt P02769)"
readout_value = 0.484

[[record]]
molecule = "C=CCc1cccc([C@H]2N[C@H](C(=O)O)CC[C@@H]2C)c1"
tested_system = "Albumin (Bos taurus) (UniProt P02769)"
readout_value = -0.595

[[record]]
molecule = "CC(=O)NCCCC[C@@H]1NC(=O)[C@@H]2C[C@H](C(=O)NCCCCCNC(=O)CS)[C@H](c3ccc(O)cc3)N2C1=O"
tested_system = "Albumin (Bos taurus) (UniProt P02769)"
readout_value = -0.0591

[[record]]
molecule = "CO[C@H]1COC(=O)[C@H](C)NC(=O)CC=C[C@@H](C)[C@H](NS(=O)(=O)c2ccc(C)cc2)COC(=O)CC=C[C@@H]1C"
tested_system = "Albumin (Bos taurus) (UniProt P02769)"
readout_value = -0.524


###

# tested_system: Left-right determination factor 2 (Homo sapiens)
# assay_method_text: LEFTY2 binders on small-molecule microarrays, primary screen, biochemical, small-molecule microarray, 635 nm fluorescence scan (AID 1110)
# setup_conditions: LEFTY2 binding, higher = more signal
measure: composite z-score

[[record]]
smiles_code = "CCCN1C(=O)[C@@]2(CCS(=O)(=O)c3ccccc3)N=C(c3ccc(OCCCO)cc3)O[C@H]2c2ccccc21"
readout_value = 0.224

[[record]]
smiles_code = "CCOC(=O)C[C@H]1[C@H](OC(=O)c2cc3ccccc3oc2=O)[C@@H](NC(=O)c2ccc3ccccc3c2)c2cc(OCCCO)ccc2N1C(=O)c1ccc2ccccc2n1"
readout_value = 0.57

[[record]]
smiles_code = "CC/C=C/C(=O)N(C[C@@H]1CCCO1)[C@@H]1CC(C(=O)NCCO)=C[C@H](Oc2c(I)cc(CO)cc2OC)[C@H]1O"
readout_value = 0.208

[[record]]
smiles_code = "CO[C@H]1COC(=O)CC=C[C@H](C)[C@@H](OC)COC(=O)CC=C[C@@H]1C"
readout_value = 0.724


###

# composite z-score listing for each entry below
# tested_system: Torsin-1A (Homo sapiens) (UniProt O14656)
# Sequence (O14656 whole entry, looked up): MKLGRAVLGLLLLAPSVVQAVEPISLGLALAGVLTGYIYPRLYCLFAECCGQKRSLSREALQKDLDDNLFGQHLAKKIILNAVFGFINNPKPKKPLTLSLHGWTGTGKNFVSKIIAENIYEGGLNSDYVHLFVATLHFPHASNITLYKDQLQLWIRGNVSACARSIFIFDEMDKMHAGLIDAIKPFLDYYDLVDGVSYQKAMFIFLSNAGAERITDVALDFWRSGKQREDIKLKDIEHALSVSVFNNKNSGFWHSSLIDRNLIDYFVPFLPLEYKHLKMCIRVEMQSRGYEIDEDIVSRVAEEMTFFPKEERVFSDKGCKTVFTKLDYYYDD
# assay_method_text: torsin A binders from cell lysate, primary screen, small-molecule microarray, wild-type, 635/667 nm (AID 1149)
# setup_conditions: COS7 hTOR1A-WT lysate, 635 nm fluorescence, higher = more signal
measure: composite z-score

[[record]]
compound = "O=C1NC(=O)C2C1C=CC(C(O)C=Cc1ccc([N+](=O)[O-])cc1)N2Nc1ccccn1 (stereo not drawn)"
readout_value = 0.151

[[record]]
compound = "O=C1O[C@@H](c2ccccc2)[C@@H](c2ccccc2)N2[C@@H](c3ccc(O)cc3)[C@]3(C(=O)Nc4ccccc43)[C@@H](C(=O)N3CCN(c4ncccn4)CC3)[C@H]12"
readout_value = 0.828

[[record]]
compound = "COCCOC(=O)N1C(=O)[C@@]2(c3cc(C#CCC(C(=O)OC)C(=O)OC)ccc31)[C@H](C(=O)N1CCN(c3ncccn3)CC1)[C@H]1C(=O)O[C@H](c3ccccc3)[C@H](c3ccccc3)N1[C@@H]2c1ccc(O)cc1"
readout_value = 0.143

[[record]]
compound = "CC(=O)NCCCC[C@@H]1NC(=O)[C@H]2C[C@@H](C(=O)NCCCCCCN(C)C)[C@@H](c3ccc(O)cc3)N2C1=O"
readout_value = 1.6

[[record]]
compound = "O=C1C2C=CC(C(O)Cc3ccccc3)N(Nc3ccc([N+](=O)[O-])cc3)C2C(=O)N1c1ccccc1 (stereo not drawn)"
readout_value = 0.187

[[record]]
compound = "CN(C)CCCC[C@@H]1NC(=O)[C@@H]2C[C@H](C(=O)O)[C@H](c3ccc(O)cc3)N2C1=O"
readout_value = 0.939

[[record]]
compound = "O=C(CS)NCCCCCCNC(=O)[C@@H]1C[C@@H]2C(=O)N[C@@H](Cc3ccccc3)C(=O)N2[C@@H]1c1ccc(O)cc1"
readout_value = 1.12

[[record]]
compound = "C=CCOC(=O)[C@@H]1[C@H]2C(=O)O[C@H](c3ccccc3)[C@H](c3ccccc3)N2[C@H](c2ccc(OCCOC(=O)[C@H]3C[C@H]4C(=O)N5CCC[C@H]5C(=O)N4[C@H]3c3ccc(O)cc3)cc2)[C@@]12C(=O)Nc1ccccc12"
readout_value = 0.885

[[record]]
compound = "CO[C@]12C=C(Br)[C@@H](C[C@@H]1c1ccccc1)[C@@]1(CO1)C2=O"
readout_value = 0.271

[[record]]
compound = "COCCOC(=O)N1C(=O)[C@@]2(c3cc(C#CCNC(N)=O)ccc31)[C@H](c1ccccc1OCCO)N1[C@H](c3ccccc3)[C@H](c3ccccc3)OC(=O)[C@H]1[C@@H]2C(=O)NC[C@H](O)c1ccccc1"
readout_value = 0.834

[[record]]
compound = "C[C@]1(C(=O)NCCN2CCOCC2)c2ccccc2C(=O)N(Cc2ccccc2)[C@H]1c1ccc(CO)cc1"
readout_value = 0.403

[[record]]
compound = "COCCOC(=O)N1C(=O)[C@@]2(c3cc(C#CC4(O)CCCCCC4)ccc31)[C@H](C(=O)N1CCCCCCC1)[C@H]1C(=O)O[C@H](c3ccccc3)[C@H](c3ccccc3)N1[C@@H]2c1ccc(O)cc1"
readout_value = 1.27

[[record]]
compound = "Cc1ccc(S(=O)(=O)c2cc3oc2CC[C@@H](CO)NC(=O)N(C)Cc2cn(nn2)C[C@H](Cc2ccccc2)NC3=O)cc1"
readout_value = 0.285


###

# assay_method_text: E. coli acrAB mutant growth effects, primary screen, E. coli filamentation inducers, strain DRC39, OD650, 48 h (AID 1179);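 also: screen aims at cell division blockers that make cells filament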
# setup_conditions: E. coli DRC39 delta-acrAB growth, higher = more signal, called active from +8 up or from −8 down
Activity calls are given as the source filed them.
measure: z-score

[[record]]
molecule = "COC(=O)c1c(CC[C@@H](CO)NC(=O)N[C@H](Cn2cc(-c3cncn3C)nn2)C(C)C)oc(C(C)=O)c1C(=O)OC"
readout_value = "1.47 (inactive)"

[[record]]
molecule = "COc1ccc([Si](C)(C)[C@H]2[C@H](CCO)O[C@@]3(C(=O)N(Cc4ccc(N5CCCCC5=O)cc4)c4ccccc43)[C@@H]2C)cc1"
readout_value = "-0.0822 (inactive)"

[[record]]
molecule = "CO[C@@H]1COC(=O)CC=C[C@@H](C)[C@H](OC)COC(=O)CC=C[C@H]1C"
readout_value = "0.505 (inactive)"

[[record]]
molecule = "CCc1cccc(NC(=O)O[C@H]2[C@H](OC(=O)Nc3ccccc3)[C@@H](OC(=O)Nc3ccccc3)[C@@H](OC)O[C@@H]2CO)c1"
readout_value = "0.711 (inactive)"

[[record]]
molecule = "C=CC[C@]1(C(=O)NCC(O)CO)N=C(c2ccc(OCCCO)cc2)O[C@H]1c1ccccc1 (stereo not given in full)"
readout_value = "0.199 (inactive)"

[[record]]
molecule = "CCCNC(=O)[C@@H]1c2ccccc2C(=O)N(Cc2cc(F)cc(C(F)(F)F)c2)[C@H]1c1ccc(CO)cc1"
readout_value = "0.576 (inactive)"

[[record]]
molecule = "CO[C@H]1COC(=O)[C@@H](C)NC(=O)CC=C[C@@H](C)[C@H](OC)COC(=O)CC=C[C@@H]1C"
readout_value = "0.505 (inactive)"

[[record]]
molecule = "O=C(NCC(O)CO)[C@]1(Cc2ccccc2)N=C(c2ccc(OCCCO)cc2)O[C@@H]1c1ccccc1 (stereo not given in full)"
readout_value = "0.235 (inactive)"

[[record]]
molecule = "COc1cc(CO)cc(I)c1O[C@H]1C=C(C(=O)NCCO)C[C@@H](N(CC2CCCCC2)C(=O)c2cc3ccccc3oc2=O)[C@@H]1O"
readout_value = "0.283 (inactive)"

[[record]]
molecule = "CCN1C(C)=C(C(=O)OC)[C@@H](c2ccccc2)N2C(=O)[C@](O)(C(=O)OC)[C@@H](c3ccccc3)C(C(C)=O)=C12"
readout_value = "-2 (inactive)"

[[record]]
molecule = "COC(=O)C1=CC(c2ccc(CO)cc2)=CC(C2CC2)N(Cc2sc3ccccc3c2Cl)C=C1C(=O)OC (stereo not given)"
readout_value = "-1.67 (inactive)"

[[record]]
molecule = "CCN1C(C)=C(C(=O)OC)[C@@H](c2ccccc2)N2C(=O)[C@@]3(C(=O)OC)O[C@@]12[C@@H]1C(=O)CCC[C@@H]13"
readout_value = "-0.0144 (inactive)"

[[record]]
molecule = "COCCCNC(=O)[C@@]1(Sc2ccc(C)cc2)CC(=O)N(Cc2cc(C(F)(F)F)cc(C(F)(F)F)c2)[C@@H]1c1ccc(CO)cc1I"
readout_value = "0.328 (inactive)"

[[record]]
molecule = "C[C@@H]1CC[C@H]2C(=O)N3[C@@H](CC[C@@H](C)[C@@H]3c3cccc(N4CCOCC4)c3)C(=O)N2[C@H]1c1cccc(N2CCOCC2)c1"
readout_value = "0.202 (inactive)"

[[record]]
molecule = "COC(=O)C[C@H]1O[C@]2(C(=O)N(Cc3ccccc3)c3ccc(I)cc32)[C@@H](C)[C@@H]1[Si](C)(C)c1ccc(OC)cc1"
readout_value = "-0.598 (inactive)"

